Reported huvec.mito.24hr values for the following compounds.
# System: iPSC-CMs, iPSC-ECs and HUVECs phenotypes
# experiment.notes: ToxPi 2.0 integration of POD values and physicochemical descriptors
# Design: species or system human
# condition.set: ToxPi-scaled (0-1) score; HUVECs, 24 h
Structures can show the parent of a compound that is named as a salt.

compound: O=S(=O)(O)Oc1cc(Cl)c(-c2cc(Cl)ccc2Cl)cc1Cl [4-PCB 52 sulfate]
huvec.mito.24hr: 0.4046

compound: Oc1cc(Cl)cc(-c2cccc(Cl)c2)c1 [5-OH-PCB 11]
huvec.mito.24hr: 0.5672

compound: COc1ccc(-c2cccc(Cl)c2)cc1Cl [4-OMe-PCB 11, 4-methoxy-3,3′-dichlorobiphenyl]
huvec.mito.24hr: 0.3305

compound: Oc1cc(Cl)c(-c2cc(Cl)ccc2Cl)cc1Cl [4-OH-PCB 52]
huvec.mito.24hr: 0.5351

compound: Clc1ccc(Cl)c(-c2c(Cl)ccc(Cl)c2Cl)c1Cl [(-)-PCB 136, 2,2′,3,3′,6,6′-hexachlorobiphenyl]
huvec.mito.24hr: 0.5549

compound: Oc1ccc(-c2cccc(Cl)c2)cc1Cl [4-OH-PCB 11]
huvec.mito.24hr: 0.5256

compound: Oc1ccc(O)c(-c2ccc(Cl)cc2)c1 [2',5'-diOH-PCB 3, 4-Chloro-2′,5′-dihydroxybiphenyl]
huvec.mito.24hr: 0.7865

compound: Clc1cc(Cl)c(-c2cc(Cl)c(Cl)cc2Cl)cc1Cl [PCB 153, 2,2′,4,4′,5,5′-hexachlorobiphenyl]
huvec.mito.24hr: 0.5815

compound: Clc1ccc(Cl)c(-c2cc(Cl)ccc2Cl)c1 [PCB 52, 2,2′,5,5′-tetrachlorobiphenyl]
huvec.mito.24hr: 0.613

compound: Oc1cccc(-c2ccc(Cl)cc2)c1 [3'-OH-PCB 3]
huvec.mito.24hr: 0.5506

====

# Test system: iCell cardiomyocytes (human iPSC-derived cardiomyocytes)
# experiment.notes: High-content imaging of cytotoxicity and mitochondrial integrity in iPSC-CMs
# Assay type: cell-based
# condition.set: Homo sapiens, Cardiomyocyte, 24 h, 0.10 µM; 24hrs; 0.00 µM = 100.00; read-out: cm.tc.24hrs
# Method: Details on cardiomyocyte cell culture are described in detail elsewhere ([Grimm et al. 2015b]; [Sirenko et al. 2013a]). […] Live cell counts for each cell suspension were determined by trypan blue staining and cells were further diluted to provide final cell densities of 2×10^5 viable cells/ml. […] Phenotypic responses were quantitatively assessed using concentration–response modeling as detailed elsewhere ([Sirenko et al. 2017]). […]
Structures can show the parent of a compound that is named as a salt.
Reported viability at 0.1 µM values for the following compounds.

compound: Clc1ccc(Cl)c(-c2cc(Cl)ccc2Cl)c1
unit.string: %
viability at 0.1 µM: 98.8
//
compound: O=S(=O)(O)Oc1cc(Cl)c(-c2cc(Cl)ccc2Cl)cc1Cl [4-yl PCB 52 sulfate]
unit.string: %
viability at 0.1 µM: 104
//
compound: Clc1ccc(Cl)c(-c2c(Cl)ccc(Cl)c2Cl)c1Cl [(+)-PCB 136, 2,2′,3,3′,6,6′-hexachlorobiphenyl]
unit.string: %
viability at 0.1 µM: 96.6
//
compound: Clc1cc(Cl)c(-c2cc(Cl)c(Cl)cc2Cl)cc1Cl
unit.string: %
viability at 0.1 µM: 98.3
//
compound: COc1cc(Cl)c(-c2cc(Cl)ccc2Cl)cc1Cl
unit.string: %
viability at 0.1 µM: 106

====

Reported minimal effective concentration values for the following molecules.
# Tested on: HUVECs
# experiment.notes: High-content imaging cytotoxicity in HUVECs, 24 h
# Type: cell-based, human
# condition.set: Homo sapiens, HUVEC, 24 h, HUVECs, 24 hr; top concentration 100.00 µM; read-out: huvec.nma.24hr POD
Structures can show the parent of a compound that is named as a salt.
measured.endpoint: minimal effective concentration (µM)

molecule: O=S(=O)(O)Oc1ccc(-c2cccc(Cl)c2)cc1Cl [4-yl PCB 11 sulfate]
measured.endpoint: minimal effective concentration
data.value: 2.98

molecule: COc1ccc(-c2ccc(Cl)cc2)cc1
measured.endpoint: minimal effective concentration
data.value: 1.41

molecule: Oc1cc(Cl)c(-c2cc(Cl)ccc2Cl)cc1Cl
measured.endpoint: minimal effective concentration
data.value: 100

molecule: Oc1ccc(-c2cccc(Cl)c2)cc1Cl
measured.endpoint: minimal effective concentration
data.value: 0.99

molecule: Clc1cccc(-c2cccc(Cl)c2)c1
measured.endpoint: minimal effective concentration
data.value: 9.3

molecule: Clc1ccc(Cl)c(-c2cc(Cl)ccc2Cl)c1
measured.endpoint: minimal effective concentration
data.value: 4.97

molecule: Oc1ccccc1-c1ccc(Cl)cc1
measured.endpoint: minimal effective concentration
data.value: 1.6

====

# System: iCell cardiomyocytes (human iPSC-derived cardiomyocytes)
# experiment.notes: High-content imaging of cytotoxicity and mitochondrial integrity in iPSC-CMs
# Assay type: cell-based
# condition.set: Homo sapiens, Cardiomyocyte, 1.5 h, 100.00 µM; 0.00 µM = 100.00; read-out: cm.cam.90min
Structures can show the parent of a compound that is named as a salt.
measured.endpoint: viability at 100 µM (%)

compound: O=S(=O)(O)Oc1ccc(-c2cccc(Cl)c2)cc1Cl [4-yl PCB 11 sulfate]
unit.string: %
data.value: 99.5
--
compound: Oc1ccccc1-c1ccc(Cl)cc1 [2'-OH PCB3]
unit.string: %
data.value: 0
--
compound: Oc1ccc(-c2ccc(Cl)cc2)cc1 [4'-OH PCB3]
unit.string: %
data.value: 0
--
compound: Clc1cccc(-c2cccc(Cl)c2)c1 [PCB11]
unit.string: %
data.value: 1.03
--
compound: Oc1cccc(-c2ccc(Cl)cc2)c1 [3'-OH PCB3]
unit.string: %
data.value: 0

====

Reported minimal effective concentration values for the following compounds.
# Test system: iCell cardiomyocytes (human iPSC-derived cardiomyocytes)
# experiment.notes: High-content imaging of cytotoxicity and mitochondrial integrity in iPSC-CMs
# Assay type: cell-based
# condition.set: Homo sapiens, Cardiomyocyte, 24 h, cardiomyocytes (cm), cam, 24 hrs; read-out: POD cm.cam.24hrs
Where a name gives a salt, the structure may show the parent alone.
measured.endpoint: minimal effective concentration (µM)

compound: O=S(=O)(O)Oc1cccc(-c2ccc(Cl)cc2)c1 [3'-PCB 3 sulfate]
data.value: 100
--
compound: O=S(=O)(O)Oc1cc(-c2ccccc2)ccc1Cl [3-PCB 3 sulfate]
data.value: 100
--
compound: COc1cc(Cl)c(-c2cc(Cl)ccc2Cl)cc1Cl
data.value: 33
--
compound: COc1ccc(-c2cccc(Cl)c2)cc1Cl
data.value: 37.2
--
compound: Oc1ccc(-c2cccc(Cl)c2)cc1Cl
data.value: 8.57
--
compound: O=S(=O)(O)Oc1ccc(-c2cccc(Cl)c2)cc1Cl [4-PCB 11 sulfate]
data.value: 5.91
--
compound: O=C1C=CC(=O)C(c2ccc(Cl)cc2)=C1
data.value: 0.06
--
compound: O=S(=O)(O)Oc1ccc(-c2ccc(Cl)cc2)cc1 [4'-PCB 3 sulfate]
data.value: 100
--
compound: Clc1ccc(-c2cc(Cl)c(Cl)c(Cl)c2)cc1Cl
data.value: 7.03

====

# Tested on: iPSC-CMs, iPSC-ECs and HUVECs phenotypes
# experiment.notes: ToxPi 2.0 integration of POD values and physicochemical descriptors
# Design: species or system human
# condition.set: ToxPi-scaled (0-1) score; iPSC endothelial cells, 24 h
Counter-ions that a name gives are not always drawn.
measured.endpoint: endo.mito.24hr

compound: Clc1ccc(-c2ccccc2)cc1
target.system: iPSC-CMs, iPSC-ECs and HUVECs phenotypes
data.value: 0
//
compound: O=S(=O)(O)Oc1ccc(-c2cccc(Cl)c2)cc1Cl [4-PCB 11 sulfate]
target.system: iPSC-CMs, iPSC-ECs and HUVECs phenotypes
data.value: 0
//
compound: Oc1cccc(-c2ccc(Cl)cc2)c1
target.system: iPSC-CMs, iPSC-ECs and HUVECs phenotypes
data.value: 0.1365
//
compound: COc1cc(Cl)c(-c2cc(Cl)ccc2Cl)cc1Cl
target.system: iPSC-CMs, iPSC-ECs and HUVECs phenotypes
data.value: 0.1456
//
compound: O=C1C=CC(=O)C(c2ccc(Cl)cc2)=C1
target.system: iPSC-CMs, iPSC-ECs and HUVECs phenotypes
data.value: 0.5702
//
compound: Clc1ccc(Cl)c(-c2cc(Cl)ccc2Cl)c1
target.system: iPSC-CMs, iPSC-ECs and HUVECs phenotypes
data.value: 0
//
compound: O=S(=O)(O)Oc1cc(-c2ccccc2)ccc1Cl [3-PCB 3 sulfate]
target.system: iPSC-CMs, iPSC-ECs and HUVECs phenotypes
data.value: 0
//
compound: Clc1cc(Cl)c(-c2cc(Cl)c(Cl)cc2Cl)cc1Cl
target.system: iPSC-CMs, iPSC-ECs and HUVECs phenotypes
data.value: 0.2934
//
compound: O=S(=O)(O)Oc1ccc(-c2ccc(Cl)cc2)cc1 [4'-PCB 3 sulfate]
target.system: iPSC-CMs, iPSC-ECs and HUVECs phenotypes
data.value: 0
//
compound: Clc1ccc(Cl)c(-c2c(Cl)ccc(Cl)c2Cl)c1Cl [(+)-PCB 136, 2,2′,3,3′,6,6′-hexachlorobiphenyl]
target.system: iPSC-CMs, iPSC-ECs and HUVECs phenotypes
data.value: 0.1692
